Values were extracted from the NIST ThermoML archive (doi:10.1021/je700174h).

settings: 323.15 K; Liquid; mass and volume balance equations
recorded_metric: vapor or sublimation pressure (kPa)

// below: answered molecules
[
  {
    "query_smiles": "CCCCCCCCCCCC",
    "endpoint_unit": "kPa",
    "vapor or sublimation pressure": 0.2
  },
  {
    "query_smiles": "Cc1ccccc1",
    "endpoint_unit": "kPa",
    "vapor or sublimation pressure": 12.22
  }
]

(P) CCCCCCCCCC
(Q) C=CCCCCCC
(R) c1ccccc1
(S) O
Qu. Please list the entries, largest vapor or sublimation pressure first. Answer by listing the labels in the requested order.
Ans. R, S, Q, P
